test system: ATR; set-up: species or system human, MV4-11 + K-562 + COLO205 + SK-N-BE2 + OVCAR-8; conditions: read-out: apparent Kd; compound concentrations:100 nM and 1000 nM (sheet 'Samples'); n = 1
Mark Criterion met for reported potency estimated from few doses of 800 nM or greater; mark Criterion not met for anything smaller.

[
  {
    "compound": "O=C1NC(=O)C(N2CCc3ccccc32)=C1c1ccccc1Cl",
    "discrete-label": "Criterion not met"
  },
  {
    "compound": "Cc1cnc(Nc2ccc(F)cc2Cl)nc1-c1c[nH]c(C(=O)N[C@H](CO)c2cccc(Cl)c2)c1 [Vertex11e]",
    "discrete-label": "Criterion met"
  },
  {
    "compound": "Cl.Cl.NCC(C(=O)Nc1cc(Br)c(-c2ccnc3[nH]ccc23)s1)c1ccccc1.NCC(C(=O)Nc1cc(Br)c(-c2ccnc3[nH]ccc23)s1)c1ccccc1 (stereo not drawn) [GSK1269851A]",
    "discrete-label": "Criterion met"
  },
  {
    "compound": "Cc1ccc2c(-c3ccncc3)c(-c3ccc(F)cc3)nn2c1.Cl [GW461484A]",
    "discrete-label": "Criterion met"
  }
]

---

system: FYN; parameters: species or system human, MV4-11 + K-562 + COLO205 + SK-N-BE2 + OVCAR-8; settings: read-out: apparent Kd; compound concentrations:100 nM and 1000 nM (sheet 'Samples'); n = 1
Cut-off 900 nM on potency estimated from few doses: below means Yes, at or above means No.

[
  {
    "molecule": "O=C1NC(=O)C(N2CCc3ccccc32)=C1c1ccccc1Cl",
    "discrete-label": "Yes"
  },
  {
    "molecule": "Clc1cccc(-c2nc(Nc3ccncc3)c3ccccc3n2)c1 [GW873004X]",
    "discrete-label": "No"
  },
  {
    "molecule": "CC(C)c1nc(-c2ccc(F)c(NS(=O)(=O)c3c(F)cccc3F)c2)c(-c2ccnc(Nc3ccc(N4CCOCC4)nc3)n2)s1 [GSK1804250A]",
    "discrete-label": "No"
  },
  {
    "molecule": "O=c1cc(N2CCOCC2)nc2n(Cc3cccc(F)c3)ccn12 [GSK2297430A]",
    "discrete-label": "No"
  },
  {
    "molecule": "CN1C[C@@H]2Cn3c(c(C4=C(c5cn(C)c6ccccc56)C(=O)NC4=O)c4ccccc43)C[C@H]2C1.Cl",
    "discrete-label": "Yes"
  },
  {
    "molecule": "Cc1ccc2c(-c3ccncc3)c(-c3ccc(F)cc3)nn2c1.Cl [GW461484A]",
    "discrete-label": "No"
  },
  {
    "molecule": "Cl.Cl.NCC(C(=O)Nc1cc(Br)c(-c2ccnc3[nH]ccc23)s1)c1ccccc1.NCC(C(=O)Nc1cc(Br)c(-c2ccnc3[nH]ccc23)s1)c1ccccc1 (stereo not shown) [GSK1269851A]",
    "discrete-label": "Yes"
  },
  {
    "molecule": "NCCNS(=O)(=O)c1ccc(-c2ccnc3[nH]ccc23)cc1 [GSK977617A]",
    "discrete-label": "No"
  },
  {
    "molecule": "CNC(=O)c1ccccc1Nc1nc(Nc2ccc(N3CCOCC3)cc2)ncc1Cl.Cl [GSK1576028A]",
    "discrete-label": "Yes"
  },
  {
    "molecule": "Cc1cccc(-c2cc(-c3c[nH]nc3-c3ccccn3)ccn2)c1 [GW679395X]",
    "discrete-label": "No"
  }
]

---

Entries and their measured potency estimated from few doses follow.
system: CSNK2A1;CSNK2A3; set-up: species or system human, MV4-11 + K-562 + COLO205 + SK-N-BE2 + OVCAR-8; conditions: read-out: apparent Kd; compound concentrations:100 nM and 1000 nM (sheet 'Samples'); n = 1

[
  {
    "compound": "CNC(=O)c1ccccc1Nc1nc(Nc2ccc(N3CCOCC3)cc2)ncc1Cl.Cl [GSK1576028A]",
    "readout-units": "µM",
    "potency estimated from few doses": 0.0593
  },
  {
    "compound": "COc1cc[nH]c1/C=C1\\C(=O)Nc2ccc(F)c(C#C[C@@H](O)[C@@H](N)[C@@H](C)O)c21 [RO0283120-000]",
    "readout-units": "µM",
    "potency estimated from few doses": 0.75
  },
  {
    "compound": "CN1C[C@@H]2Cn3c(c(C4=C(c5cn(C)c6ccccc56)C(=O)NC4=O)c4ccccc43)C[C@H]2C1.Cl [RO0320234-001]",
    "readout-units": "µM",
    "potency estimated from few doses": 0.836
  },
  {
    "compound": "CN(C)CC(O)COc1ccc(Nc2nccc(-c3cnn4nc(N5CCOCC5)ccc34)n2)cc1 (stereo not shown) [GW767488X]",
    "readout-units": "µM",
    "potency estimated from few doses": 0.105
  }
]

---

system: GSK3A; design: species or system human, MV4-11 + K-562 + COLO205 + SK-N-BE2 + OVCAR-8; conditions: read-out: apparent Kd; compound concentrations:100 nM and 1000 nM (sheet 'Samples'); n = 1
Overview of reported potency estimated from few doses across a group of compounds:

[
  {
    "compound": "CN1C[C@@H]2Cn3c(c(C4=C(c5cn(C)c6ccccc56)C(=O)NC4=O)c4ccccc43)C[C@H]2C1.Cl [RO0320557-001]",
    "potency estimated from few doses": "53.4 nM"
  },
  {
    "compound": "CNCc1ccc(-c2cc(-c3nc(-c4ccc(S(=O)(=O)C(C)C)cc4)cnc3N)on2)cc1",
    "potency estimated from few doses": "684 nM"
  },
  {
    "compound": "CCn1c(-c2nonc2N)nc2c(C#CC(C)(C)O)nc(OCCN)cc21.CCn1c(-c2nonc2N)nc2c(C#CC(C)(C)O)nc(OCCN)cc21.Cl.Cl [GSK902056A]",
    "potency estimated from few doses": "113 nM"
  }
]

---

system: MOB1A; set-up: species or system human, MV4-11 + K-562 + COLO205 + SK-N-BE2 + OVCAR-8; details: compound concentrations:0.3nM, 1nM, 3nM, 10nM, 30nM, 100nM, 300nM, 1000nM,R2:0.920591021551731,slope:1.01230388230399,EC50 Standard Error, by the legend:Standard error of the EC50 estimation as provided by the drc package.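 Note: competition pulldown with Kinobeads ε in cell lysates, inhibitor preincubated 45 min at 4 °C, bound kinases quantified by LC–MS/MS against DMSO control.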
value-kind: EC50 (nM)

[
  {
    "molecule": "CCn1c(-c2nonc2N)nc2c(C#CC(C)(C)O)nc(OCCN)cc21.CCn1c(-c2nonc2N)nc2c(C#CC(C)(C)O)nc(OCCN)cc21.Cl.Cl [GSK902056A]",
    "target": "MOB1A",
    "value-kind": "EC50",
    "readout-units": "nM",
    "reading": 223
  }
]

---

tested on: CSNK2A2; set-up: species or system human, MV4-11 + K-562 + COLO205 + SK-N-BE2 + OVCAR-8; conditions: read-out: apparent Kd; compound concentrations:100 nM and 1000 nM (sheet 'Samples'); n = 1

[
  {
    "compound": "CC(C)(CO)CNC(=O)c1ccc2c(c1)/C(=N/Nc1ccc(S(N)(=O)=O)cc1)C(=O)N2 [GW301784X]",
    "readout-units": "nM",
    "potency estimated from few doses": 64.3
  },
  {
    "compound": "CC(=O)N[C@@H](Cc1ccc(OP(=O)(O)O)cc1)C(=O)N[C@H]1CCC(=O)N2CCC[C@@H](C(=O)NCc3ccc(Cl)cc3)N2C1=O",
    "readout-units": "nM",
    "potency estimated from few doses": 1780
  },
  {
    "compound": "NS(=O)(=O)c1ccc(N/N=C2\\C(=O)Nc3ccc(C(=O)NCc4ccncc4)cc32)cc1 [GSK300657X]",
    "readout-units": "nM",
    "potency estimated from few doses": 771
  },
  {
    "compound": "O=C1NC(=O)C(N2CCc3ccccc32)=C1c1ccccc1Cl",
    "readout-units": "nM",
    "potency estimated from few doses": 301
  },
  {
    "compound": "CS(=O)(=O)CCn1c(=O)c(Oc2ccc(F)cc2F)cc2cnc(NC3CCOCC3)nc21",
    "readout-units": "nM",
    "potency estimated from few doses": 1530
  },
  {
    "compound": "CNC(=O)c1ccccc1Nc1nc(Nc2ccc(N3CCOCC3)cc2)ncc1Cl.Cl [GSK1576028A]",
    "readout-units": "nM",
    "potency estimated from few doses": 24.4
  },
  {
    "compound": "Cc1cccc(-c2nc(Nc3cccc(C(N)=O)c3)c3ccccc3n2)n1 [GW876019X]",
    "readout-units": "nM",
    "potency estimated from few doses": 2230
  }
]
